- assay_method_text: Solubility in water of different salts
- Type: physicochemical
- condition_context: thermodynamic from solid; water at RT; read-out: Solubility (mg/ml) in water
result_type: solubility

In: solubility lookup needed for COC(=O)C1=C(C)N(c2cccc(C(F)(F)F)c2)c2n[nH]c(=O)n2[C@@H]1c1ccc(C#N)cc1CC[N+](C)(C)C [Xinafoate] , thanks.
Out: < 0.05 mg/mL
